EXPERIMENTAL_READOUT: melting point

Q) Would you mind telling me what melting point value was observed for CCc1c(C(N)=O)sc(SC)c1-c1oncc1C ?
A) 93.5 to 94.5 °C

Q) Further, for CN1CCSC1=NCN1C(=O)CCC1=O ?
A) 142 to 144 °C

Q) Further, for O=C(NC(=O)N1CCC(Cc2ccccc2)CC1)c1ccc(OCc2ccccc2)cc1 ?
A) 155 to 156 °C

Q) Further, for Cc1nnc2n1-c1ccc(C(=O)O)cc1C(c1ccccc1Cl)=NC2 ?
A) 169 to 173 °C

Q) Further, for Cc1c(=O)n(Cc2ccc(C#N)cc2)c(=O)n2cc(C(=O)NCc3ccc(F)cc3)sc12 ?
A) > 220 °C

Q) Further, for COc1c(C)cc(C)cc1CCC(=O)O ?
A) 74 to 75 °C

Q) Further, for CCOC(=O)CCc1c[nH]c(-c2cccs2)c1 ?
A) 39 to 40 °C

Q) Further, for Cc1ccc2c3ccccc3n(CC(O)CN3CCNCC3c3ccc(Cl)c(Cl)c3)c2c1 (stereo not given) ?
A) 140 °C

Q) Further, for Cn1c(SCC(=O)C23CC4CC(CC(C4)C2)C3)nnc1-c1cccs1 ?
A) 156 to 157 °C

Q) Further, for CC(Oc1ccc(-c2ccc(CC(=O)NC3CC3)cc2)cc1)C(O)CCc1cccnc1 (stereo not given) ?
A) 117 to 118 °C
